- assay: Inhibition of transglycosylase assessed as inhibition of NBD- labelled lipid II polymerization
attributeMeasured: IC90 (µM)
Report as a plain number; the unit µM is understood.

Identify measured IC90 corresponding to `O=C(Nc1ccc(Oc2ccc(Cl)c3cccnc23)c(Cl)c1)c1cc(Br)cc(Br)c1O`
100

Name the recorded IC90 of the molecule listed here: `Cc1ccc(C(C)C)cc1Oc1ccc(Cl)cc1NC(=O)c1cc(Cl)ccc1O`
100

Give a short answer stating reported IC90 for `O=C(c1ccc(Cl)cc1)c1cc(NC(=O)c2cc(Br)cc(Br)c2O)ccc1Br` .
100

In one line, give reported IC90 of the entry `Cc1ccc(C(C)C)c(Oc2ccc(Cl)cc2NC(=O)c2cc(Cl)cc(Cl)c2O)c1` .
50

Tell me its IC90 given `O=C(Nc1ccc(Oc2cc3ccccc3cc2Cl)c(Cl)c1)c1cc(Br)cc(Br)c1O` as the entry.
100

Specify IC90 for `O=C(c1ccc(Cl)cc1)c1cc(NC(=O)c2cc(Cl)cc(Br)c2O)c(Cl)cc1Cl` and stop.
100

Provide IC90 value for the following molecule: `Cc1ccc(C(C)C)c(Oc2ccccc2NC(=O)c2cc(Br)cc(Br)c2O)c1`
50

Determine from records and report IC90 for `O=C(Nc1ccc(S(=O)(=O)c2nc3ccccc3s2)c(Cl)c1)c1cc(Cl)cc(Cl)c1O`
100

Consider the molecule `O=C(Nc1ccc(Sc2nc3ccccc3s2)c(Cl)c1)c1cc(Br)cc(Br)c1O` . State its measured IC90.
100

Check the records and state IC90 for `O=C(Nc1cc(Cl)cc(C(=O)c2ccc(Cl)cc2)c1Cl)c1cc(Br)cc(Br)c1O`
100

Please report the measured IC90 for `Cc1ccc(C(=O)c2cc(NC(=O)c3cc(I)cc(I)c3O)ccc2Cl)cc1`
100

Report measured IC90; entry is `O=C(Nc1cc(Cl)ccc1Oc1ccccc1)c1cc(Br)cc(Br)c1O`
50

Please report the measured IC90 for `Cc1ccc(C(=O)c2cc(Cl)cc(NC(=O)c3cc(Br)cc(Br)c3O)c2Cl)cc1`
100

Complete the entry with IC90 for `O=C(c1ccc(Cl)cc1)c1cc(NC(=O)c2cc(I)cc(I)c2O)ccc1Cl`
100

Give IC90 for `Cc1ccc(C(C)C)c(Oc2ccc(Cl)cc2NC(=O)c2cc(I)cc(I)c2O)c1`
50

Give reported IC90 value for `O=C(Nc1ccc(Oc2ccc3ccccc3c2Cl)c(Cl)c1)c1cc(Br)cc(Br)c1O`
100
